Source listed as paper PMC13539321.

For reference, Kd measured on mushroom TYR (Agaricus bisporus, UniProt C7FF04):

# COMPOUND, Kd [µM]
data = [
    ("O=C(CCc1cccc(O)c1)N1CCN(Cc2ccc(F)cc2)CC1 [Compound V]", 24.2),
    ("Cc1ccc(CN2CCN(C(=O)/C=C/c3ccc(O)cc3O)CC2)cc1 [Compound V-24]", 13.8),
]

###

Assay: Plasma stability study
Format: in vitro ADME
Settings: human
PROPERTY: remaining at 2 h, 1 µM

# COMPOUND, PROPERTY, ENDPOINT_RESULT
records = [
    ("Cc1ccc(CN2CCN(C(=O)/C=C/c3ccc(O)cc3O)CC2)cc1 [Compound V-24]", "remaining at 2 h, 1 µM", "89.1%"),
]

###

Assay: in vitro
Details: human, microsomes

# SMILES_REPR, remaining at 0.75 h, 1 µM / %
measured = [
    ("Cc1ccc(CN2CCN(C(=O)/C=C/c3ccc(O)cc3O)CC2)cc1", 42),
]

###

Target: Mushroom TYR (EC 1.14.18.1) (Agaricus bisporus, UniProt C7FF04)
Sequence (C7FF04 1-392 limits assumed): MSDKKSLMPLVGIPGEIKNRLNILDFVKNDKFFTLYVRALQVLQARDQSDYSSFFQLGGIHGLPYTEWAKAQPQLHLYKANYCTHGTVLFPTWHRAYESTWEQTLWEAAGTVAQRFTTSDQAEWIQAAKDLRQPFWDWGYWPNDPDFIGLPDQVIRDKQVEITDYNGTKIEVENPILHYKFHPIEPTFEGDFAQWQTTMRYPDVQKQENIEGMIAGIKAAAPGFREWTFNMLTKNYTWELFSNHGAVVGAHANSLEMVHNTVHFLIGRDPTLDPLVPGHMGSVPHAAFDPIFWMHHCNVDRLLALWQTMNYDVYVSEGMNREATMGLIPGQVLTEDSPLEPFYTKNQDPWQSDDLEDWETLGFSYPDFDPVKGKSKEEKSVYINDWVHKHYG
Assay: biochemical
Conditions: IC50 value ± SD, L-tyrosine
pIC50: −log10 of the molar value.
Documented pIC50 across a set of compounds
PROPERTY: pIC50

# COMPOUND, ENDPOINT_RESULT
data = [
    ("O=C(CCc1cccc(O)c1)N1CCN(Cc2cccs2)CC1 [Compound V-18]", "< 3.52"),
    ("O=C(CCc1cccc(O)c1)N1CCN(CCc2ccccc2)CC1 [Compound V-16]", "< 3.52"),
    ("O=C(CCc1cccc(O)c1)N1CCN(Cc2ccccn2)CC1 [Compound V-19]", "< 3.22"),
    ("O=C(CCc1cccc(O)c1)N1CCN(Cc2ccco2)CC1 [Compound V-17]", "< 3.22"),
]

###

# Lookup of reported pIC50 keyed by entry
Molecular target: Mushroom TYR (EC 1.14.18.1) (Agaricus bisporus)
Assay: biochemical
Conditions: IC50 value ± SD, L-dopa
pIC50: −log10 of the molar value.
PROPERTY: pIC50

# SMILES_REPR, TEST_SYSTEM, PROPERTY, ENDPOINT_RESULT
measured = [
    ("O=C(CCc1cccc(O)c1)N1CCN(Cc2ccccn2)CC1", "Mushroom TYR (EC 1.14.18.1) (Agaricus bisporus)", "pIC50", "< 3.10"),
    ("O=C(CCc1cccc(O)c1)N1CCN(Cc2cccc(F)c2)CC1", "Mushroom TYR (EC 1.14.18.1) (Agaricus bisporus)", "pIC50", "< 3.40"),
    ("O=C(/C=C/c1cccc(O)c1)N1CCN(Cc2ccc(F)cc2)CC1", "Mushroom TYR (EC 1.14.18.1) (Agaricus bisporus)", "pIC50", "< 3.70"),
    ("CCc1ccc(CN2CCN(C(=O)CCc3cccc(O)c3)CC2)cc1", "Mushroom TYR (EC 1.14.18.1) (Agaricus bisporus)", "pIC50", "< 3.10"),
    ("O=C(CCc1cccc(O)c1)N1CCN(Cc2ccccc2F)CC1", "Mushroom TYR (EC 1.14.18.1) (Agaricus bisporus)", "pIC50", "< 3.10"),
]

###

Each entry below lists one item and its recorded IC50 value.
Target: Mushroom TYR (EC 1.14.18.1) (Agaricus bisporus, UniProt C7FF04)
Assay: biochemical
Conditions: IC50 value ± SD, L-tyrosine, substrate L-tyrosine (monophenolase); n = 3; screening of de novo generated compounds (Table 1)
PROPERTY: IC50 (µM)

# SMILES_REPR, TEST_SYSTEM, QUALIFIER_SIGN, ENDPOINT_RESULT
measured = [
    ("Cc1nc2ccc(C(=O)NCc3ccc(O)cc3)cc2[nH]1", "Mushroom TYR (EC 1.14.18.1) (Agaricus bisporus, UniProt C7FF04)", "=", 99.7),
    ("NC(=O)[C@H](Cc1ccccc1)NC(=O)c1cccc(O)c1", "Mushroom TYR (EC 1.14.18.1) (Agaricus bisporus, UniProt C7FF04)", ">", 800),
    ("O=C(NCCc1cccc(O)c1)c1cccc2ncccc12", "Mushroom TYR (EC 1.14.18.1) (Agaricus bisporus, UniProt C7FF04)", ">", 800),
    ("O=C(Oc1ccc(N2CCNCC2)cc1)c1cc(O)nc2ccccc12", "Mushroom TYR (EC 1.14.18.1) (Agaricus bisporus, UniProt C7FF04)", "=", 164),
]

###

Target: Mushroom TYR (EC 1.14.18.1) (Agaricus bisporus, UniProt C7FF04)
Assay: biochemical
Details: IC50 value ± SD, L-dopa
pIC50: −log10 of the molar value.

# MOLECULE, TEST_SYSTEM, pIC50
records = [
    ("O=C(CCc1cccc(O)c1)N1CCN(Cc2ccco2)CC1 [Compound V-17]", "Mushroom TYR (EC 1.14.18.1) (Agaricus bisporus, UniProt C7FF04)", "< 3.10"),
    ("O=C(CCc1cccc(O)c1)NCCNCc1ccc(F)cc1 [Compound V-8]", "Mushroom TYR (EC 1.14.18.1) (Agaricus bisporus, UniProt C7FF04)", "< 3.10"),
    ("Cc1ccc(CN2CCN(C(=O)CCc3cccc(O)c3)CC2)cc1 [Compound V-11]", "Mushroom TYR (EC 1.14.18.1) (Agaricus bisporus, UniProt C7FF04)", "< 3.40"),
    ("O=C(CCc1cccc(O)c1)N1CCN(Cc2cccs2)CC1 [Compound V-18]", "Mushroom TYR (EC 1.14.18.1) (Agaricus bisporus, UniProt C7FF04)", "< 3.10"),
]
